# target: Nuclear receptor ROR-gamma (Mus musculus) (UniProt P51450)
# Sequence (P51450 whole entry, looked up): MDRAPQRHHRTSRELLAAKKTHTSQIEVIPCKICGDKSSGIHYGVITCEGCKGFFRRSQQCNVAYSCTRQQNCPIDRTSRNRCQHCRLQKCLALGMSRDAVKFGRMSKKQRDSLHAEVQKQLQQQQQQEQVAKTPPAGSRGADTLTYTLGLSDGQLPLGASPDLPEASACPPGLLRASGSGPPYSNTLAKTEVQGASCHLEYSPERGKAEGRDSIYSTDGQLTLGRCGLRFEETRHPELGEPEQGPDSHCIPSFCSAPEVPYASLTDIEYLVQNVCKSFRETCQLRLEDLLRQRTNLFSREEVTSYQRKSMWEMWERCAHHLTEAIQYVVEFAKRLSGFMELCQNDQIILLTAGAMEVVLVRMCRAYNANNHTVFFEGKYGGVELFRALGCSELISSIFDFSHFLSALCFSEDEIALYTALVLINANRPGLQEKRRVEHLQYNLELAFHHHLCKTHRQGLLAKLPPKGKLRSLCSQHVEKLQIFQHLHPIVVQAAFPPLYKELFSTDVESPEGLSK
# testProtocol: qHTS for inhibitors of ROR gamma transcriptional activity; also: nearly all actives have a fitted effect of over 60% in size
# setupConditions: Drosophila S2 Gal4-RORgamma UAS-luciferase reporter, 20 h; series mostly up to 53.6 µM
# From the text: NIH Molecular Libraries Probe Production Network [MLPCN] NIH Chemical Genomics Center [NCGC] […] Small molecule inhibitors of ROR gamma activity are detected by a decrease in luciferase reporter activity. […]
Screen size: about 310,000 compounds; about 17,000 (5.5%) were called active. Not shown: some 11% with an inconclusive outcome. Calls follow the shape of the dose curve; as a rule, active = well fitted inhibition curve with a large enough effect; inconclusive = small, poorly fitted or top-dose-only effect, or effect the other way; inactive = no such curve, though single readings can be large or run the other way. The sample as a whole holds a higher share of actives than the screen did.
Please answer using one outcome listed in active, inactive

The following molecules have reported results that may help.
Hi, do you know how O=C(Nc1cccc(F)c1)N1CC[C@@]2(CCCN(C(=O)Oc3ccccc3)C2)C1 came out in this test?
inactive

I would be grateful if you could indicate the recorded call for COC(=O)N1C(c2ccccc2)C1c1ccccc1 (stereo unspecified) .
inactive

Which outcome was entered for the molecule CN1C2CC3CC1C(O3)C2O (stereo unspecified) in this test?
inactive

For this molecule, state the assay outcome: CC(=O)[O][Sn]([c]1ccccc1)([c]1ccccc1)[c]1ccccc1
active

Tell me the recorded outcome of this test for c1csc(CN2CCCC3(CCNCC3)C2)n1 .
inactive

Others:
I'd appreciate the recorded outcome for O=P1(Oc2ccccc2)CC(O)C(O)C(COCc2ccccc2)O1 (stereo unspecified) from this test.
inactive

Short answer needed: outcome of this test for O=c1[nH]c(=O)n(-c2ccccc2)c(O)c1C=NC12CN3CN(CN(C3)C1)C2 ?
inactive

GET /call?item= CCN1C[C@]2(C)CC[C@H](O)[C@@]34[C@@H]5CC6[C@@H](OC)C[C@@](O)([C@@H]5[C@@H]6O)[C@H](C[C@@H]23)[C@H]14 returns the recorded outcome of this test.
inactive

---

# target: Nuclear receptor ROR-gamma (Mus musculus) (UniProt P51450)
# testProtocol: qHTS for inhibitors of ROR gamma transcriptional activity; also: nearly all actives have a fitted effect of over 60% in size
# setupConditions: Drosophila S2 Gal4-RORgamma UAS-luciferase reporter, 20 h; series mostly up to 53.6 µM
About 17,000 (5.5%) of roughly 310,000 compounds were called active. Another 11% or so got no clear call; they are omitted. The call rests on the fitted dose curve; in most records, active means well fitted inhibition curve with a large enough effect; inconclusive means small, poorly fitted or top-dose-only effect, or effect the other way; inactive means no such curve, though single readings can be large or run the other way. Many of the other results were omitted from the sample, so actives are more common in it than they were.
Select the correct class. Options are active, inactive and nothing else.

Record request — test call for CC[N+]1(CCOC(=O)C(O)(c2ccccc2)c2ccccc2)CCCCC1
inactive

Given CCC(=NCCc1ccccc1)c1c(O)n(C2CCCCC2)c(=O)[nH]c1=O , state the outcome it received in this test.
inactive

Test call for this compound, please: CC(C)(c1ccccc1)c1ccc(O)cc1
inactive

Give the logged outcome of this assay for the following compound: COc1cc2c(cc1OC)[C@@H]1C(=O)c3ccc(O)c(CC=C(C)C)c3OC1CO2 (stereo partly specified)
inactive

// return assay outcome for CN(C)C[C@H]1CCCC[C@]1(O)c1cccc(O)c1
inactive

---

# target: Nuclear receptor ROR-gamma (Mus musculus)
# testProtocol: qHTS for inhibitors of ROR gamma transcriptional activity; also: nearly all actives have a fitted effect of over 60% in size
# setupConditions: Drosophila S2 Gal4-RORgamma UAS-luciferase reporter, 20 h; series mostly up to 53.6 µM
The whole screen tested about 310,000 compounds, of which about 17,000 (5.5%) were called active. Another 11% or so got no clear call; they are omitted. Calls come from the whole dose curve; as a rule, active = well fitted inhibition curve with a large enough effect; inconclusive = small, poorly fitted or top-dose-only effect, or effect the other way; inactive = no such curve, though single readings can be large or run the other way. The sample as a whole holds a higher share of actives than the screen did.
The categories you may choose from are active, inactive

Answered cases to consult:
Outcome logged for C1CC[C@H]([C@@]23C[C@H](C[C@H]4CCCN[C@H]42)[C@@H]2CCCCN2C3)NC1 in this assay:
inactive

I'd appreciate the recorded outcome for Cn1c(O)c(C=NCCN2CCNCC2)c(=O)n(C)c1=O from this test.
inactive

Answer briefly: the call reported for BrC1C(Br)C(Br)C(Br)C(Br)C1Br (stereo unspecified) in this assay.
active

Each compound tested received a call. Report the one for O=C1CCc2cccc3c2N1CC3 .
inactive

Recorded test call requested for CC(C)(O)c1[se]c2ccccc2c1I
inactive

Continuing:
// return assay outcome for C[C@@]12CCC3C(CC[C@@H]4CC(O)CC[C@@]34C)C1CCC2O (stereo partly specified)
inactive

Look up the recorded call for CC(=C1C(=O)c2ccccc2C1=O)N1CCN(CCN=Cc2c(O)n(C)c(=O)n(C)c2=O)CC1 in this test.
active

Could you kindly confirm the outcome this assay logged for CC(=O)OC1C2CCC3C1(CC(O)[C@@]1(O)[C@@H](CC(O)C1(C)C)[C@]3(C)O)C[C@@]2(C)O (stereo partly specified) ?
inactive

Each compound tested received a call. Report the one for C=CCSSCC=C .
inactive

Record request — test call for CN1CCN(c2cc(N3CCNCC3)ccc2[N+](=O)[O-])CC1
inactive

// outcome(item) with item = O=C(NC(=S)N1C[C@H]2C[C@H](C1)c1cccc(=O)n1C2)c1ccc(F)cc1
active

---

# target: Nuclear receptor ROR-gamma (Mus musculus)
# testProtocol: qHTS for inhibitors of ROR gamma transcriptional activity; also: nearly all actives have a fitted effect of over 60% in size; also: potency is read from the fitted curve at half-maximal effect
# setupConditions: Drosophila S2 Gal4-RORgamma UAS-luciferase reporter, 20 h; series mostly up to 53.6 µM
# Excerpt: NIH Molecular Libraries Probe Production Network [MLPCN] NIH Chemical Genomics Center [NCGC] […] Small molecule inhibitors of ROR gamma activity are detected by a decrease in luciferase reporter activity. […]
Out of some 310,000 compounds screened, about 17,000 (5.5%) were called active. Roughly 11% stayed inconclusive and do not appear here. The list comes from a sample in which actives are over-represented; it also holds close analogues and randomly drawn compounds.
attributeMeasured: Potency

Look over these answered cases.
Return Potency for the following compound: N#CC(C#N)=Cc1cc(O)c(O)c([N+](=O)[O-])c1
inactive

Answer with the recorded Potency for the compound listed here: CCCCC/C=C\C/C=C\C/C=C\CCCCCCC(=O)NCCO
inactive

Specify measured Potency for c1ccc2sc(N3CCNCC3)nc2c1 .
inactive

Please give the documented Potency of c1ccc2sc(C3CCCNC3)nc2c1 (stereo unspecified)
inactive

Supply recorded Potency for CC(C)(c1ccc(OC[C@@H]2CO2)cc1)c1ccc(OC[C@H]2CO2)cc1 here.
inactive

Give recorded Potency. c1ccc2sc(SNC3CCCCC3)nc2c1
8.91 µM (active)

Continuing:
Respond only with Potency recorded for CCCCCCCCc1[se]c2ccccc2c1Br
inactive

In one line, give reported Potency of the entry CC(=O)Oc1ccccc1C(=O)Nc1ncc([N+](=O)[O-])s1 .
inactive

For the compound COc1ccc(C2Oc3c(I)c(OC)cc(OC)c3CC2O)cc1OC (stereo unspecified) , report Potency.
inactive

For the compound C[C@H]1CC[C@@]2(NC1)O[C@@H]1C[C@H]3[C@@H]4CC=C5C[C@@H](O)CC[C@]5(C)[C@@H]4CC[C@]3(C)[C@@H]1[C@@H]2C , report Potency.
inactive

Give Potency for the following compound: CO[C@H]1[C@@H](O)[C@@H](C)O[C@H](O[C@H]2[C@H](Oc3cccc4c(O)c5c(=O)oc6ccc(C)c7c(=O)oc(c34)c5c67)O[C@H](C)[C@H](O)[C@@H]2O)[C@@H]1O
11.2 µM (active)

---

# target: Nuclear receptor ROR-gamma (Mus musculus) (UniProt P51450)
# testProtocol: qHTS for inhibitors of ROR gamma transcriptional activity; also: nearly all actives have a fitted effect of over 60% in size; also: potency is read from the fitted curve at half-maximal effect
# setupConditions: Drosophila S2 Gal4-RORgamma UAS-luciferase reporter, 20 h; series mostly up to 53.6 µM
Out of some 310,000 compounds screened, about 17,000 (5.5%) were called active. Inconclusive results (about 11%) are left out. This is one part of a sample in which actives are shown more often than they occur.
attributeMeasured: Potency

Field: example entries. Status: answers known.
Identify measured Potency obtained with Nuclear receptor ROR-gamma (Mus musculus) (UniProt P51450) for CC[C@H]1CN2CCc3cc(OC)c(OC)cc3[C@@H]2C[C@@H]1C[C@H]1NCCc2cc(OC)c(OC)cc21 .
1.26 µM (active)

Provide Potency, recorded with Nuclear receptor ROR-gamma (Mus musculus) (UniProt P51450), of CN1CCCC(=C(c2cccs2)c2cccs2)C1
inactive

Enter Potency (test system Nuclear receptor ROR-gamma (Mus musculus) (UniProt P51450)) for COc1ccc(CN2CCN(c3ccccc3F)CC2)c(OC)c1
inactive

Find Potency for CCCCCn1c(=O)c(C(=O)Nc2c(C)n(C)n(-c3ccccc3)c2=O)c(O)c2ccccc21 on Nuclear receptor ROR-gamma (Mus musculus) (UniProt P51450) and write it down.
inactive

Next:
Give Nuclear receptor ROR-gamma (Mus musculus) (UniProt P51450) Potency for the following molecule: CCN1C[C@]2(COC)C(O)C[C@H](OC)[C@@]34C5C[C@]6(O)C(OC)C(O)[C@](OC(C)=O)(C5C6OC(=O)c5ccccc5)C(C(OC)C23)C14 (stereo not given in full)
inactive

---

# target: Nuclear receptor ROR-gamma (Mus musculus) (UniProt P51450)
# testProtocol: qHTS for inhibitors of ROR gamma transcriptional activity; also: nearly all actives have a fitted effect of over 60% in size
# setupConditions: Drosophila S2 Gal4-RORgamma UAS-luciferase reporter, 20 h; series mostly up to 53.6 µM
The campaign covered roughly 310,000 compounds. About 17,000 (5.5%) were called active. Not shown: some 11% with an inconclusive outcome. Many of the other results were omitted from the sample, so actives are more common in it than they were.
attributeMeasured: outcome

Recall the reported outcome of Cc1cccc([C@H](C)c2cnc[nH]2)c1C on Nuclear receptor ROR-gamma (Mus musculus) (UniProt P51450) and write it down.
inactive

Specify the recorded outcome for N[C@H](Cc1o[nH]c(=O)c1Cl)C(=O)O , system: Nuclear receptor ROR-gamma (Mus musculus) (UniProt P51450).
inactive

Provide measured outcome on Nuclear receptor ROR-gamma (Mus musculus) (UniProt P51450) for CC(=O)c1c(O)c(C)c(O)c(Cc2c(O)c3c(c(C(=O)/C=C/c4ccccc4)c2O)OC(C)(C)C=C3)c1O please.
inactive
